Origin of values: patent US20220071996A1

- PROTOCOL_DETAILS: solubility of branaplam in selected excipients
- Type: physicochemical
- MEASUREMENT_SETUP: aqueous excipient solution, 2 °C, pH 4, aqueous with cosolvent or surfactant or cyclodextrin, thermodynamic from solid, in PEG 400 10.0% (w/w), 2-8° C.; read-out: Solubility (mg/mL) 2-8° C.
QUANTITY_KIND: solubility at 24 h (mg/mL)
API: value field is a number in mg/mL; no unit string.

Quick one: solubility at 24 h of CC1(C)CC(Oc2ccc(-c3ccc(-c4cn[nH]c4)cc3O)nn2)CC(C)(C)N1 [branaplam] ?
0.45

###

- PROTOCOL_DETAILS: solubility of branaplam in selected excipients
- Format: physicochemical
- MEASUREMENT_SETUP: Cremophor RH 40 3.5% (w/v) aqueous solution in pH 4.0 buffer, 2 °C, pH 4, aqueous with cosolvent or surfactant or cyclodextrin, thermodynamic from solid, in Cremophor RH 40 3.5% (w/v), pH 4.0 buffer, 2-8° C.; read-out: Solubility (mg/mL) 2-8° C.
QUANTITY_KIND: solubility at 24 h

Quick one: solubility at 24 h of CC1(C)CC(Oc2ccc(-c3ccc(-c4cn[nH]c4)cc3O)nn2)CC(C)(C)N1 ?
0.44 mg/mL

###

- PROTOCOL_DETAILS: solubility of branaplam in selected excipients
- Format: physicochemical
- MEASUREMENT_SETUP: aqueous excipient stock solution, 25 °C, pH 4, aqueous with cosolvent or surfactant or cyclodextrin, thermodynamic from solid, in PEG 300 25.0% (w/v), pH 4.0 buffer, RT; read-out: Solubility (mg/mL) RT
QUANTITY_KIND: solubility at 24 h (mg/mL)
API: value field is a number in mg/mL; no unit string.

Quick one: solubility at 24 h of CC1(C)CC(Oc2ccc(-c3ccc(-c4cn[nH]c4)cc3O)nn2)CC(C)(C)N1 ?
1.61

###

- PROTOCOL_DETAILS: solubility of branaplam in selected excipients
- Format: physicochemical
- MEASUREMENT_SETUP: aqueous excipient stock solution, 25 °C, pH 4, aqueous with cosolvent or surfactant or cyclodextrin, thermodynamic from solid, in Tween 80 5.0% (w/v), pH 4.0 buffer, RT; read-out: Solubility (mg/mL) RT
- Experimental: Solubility of branaplam was evaluated in excipients, other than cyclodextrin, such as Cremophor RH40, Tween 80, PG, PEG300, and glycerol. These excipients and concentrations were selected as they are suitable for paediatric formulations. […] Solubility of branaplam was evaluated in excipients, other than cyclodextrin, such as Cremophor RH40, Tween 80, PG, PEG300, and glycerol. […]
QUANTITY_KIND: solubility at 24 h (mg/mL)
API: value field is a number in mg/mL; no unit string.

Quick one: solubility at 24 h of CC1(C)CC(Oc2ccc(-c3ccc(-c4cn[nH]c4)cc3O)nn2)CC(C)(C)N1 [branaplam] ?
0.89

###

- PROTOCOL_DETAILS: solubility of branaplam in selected excipients
- Assay type: physicochemical
- MEASUREMENT_SETUP: aqueous excipient solution, 25 °C, pH 4, aqueous with cosolvent or surfactant or cyclodextrin, thermodynamic from solid, in Tween 80 0.5% (w/w), RT; read-out: Solubility (mg/mL) RT
QUANTITY_KIND: solubility at 24 h
The answer consists of two parts: a number and, after it, its unit.

Quick one: solubility at 24 h of CC1(C)CC(Oc2ccc(-c3ccc(-c4cn[nH]c4)cc3O)nn2)CC(C)(C)N1 ?
0.25 mg/mL
